experiment: Drug level in Beagle dog muscle at non-injected site at 5 mg/kg, sc after 6 months; type: ADME, organism-based, Canis lupus familiaris, Muscle tissue; design: dose 5 mg/kg, route subcutaneous; details: read-out: Drug uptake
readout type: concentration at 4383 h

>>> endpoint_value("Cc1cc(/C=C/C#N)cc(C)c1Nc1ccnc(Nc2ccc(C#N)cc2)n1")
"< 5 ng/g"

====

experiment: Ratio of drug level in thymus to plasma in male Beagle dog at 400 mg/kg administered intramuscularly after 3 months; format: ADME, organism-based, Canis lupus familiaris; set-up: dose 400 mg/kg, route intramuscular; settings: im
readout type: Kp at 2191.5 h

>>> endpoint_value("Cc1cc(/C=C/C#N)cc(C)c1Nc1ccnc(Nc2ccc(C#N)cc2)n1")
3.9

====

assay: Ratio of drug level in liver to plasma in Beagle dog at 5 mg/kg, sc after 3 months; type: ADME, organism-based, Canis lupus familiaris; parameters: dose 5 mg/kg, route subcutaneous
readout type: Kp at 2191.5 h

>>> endpoint_value("Cc1cc(/C=C/C#N)cc(C)c1Nc1ccnc(Nc2ccc(C#N)cc2)n1 [RILPIVIRINE]")
14

====

assay: Drug level in Beagle dog spleen at 5 mg/kg administered intramuscularly after 6 months; assay type: ADME, organism-based, Canis lupus familiaris; parameters: dose 5 mg/kg, route intramuscular; settings: im, read-out: Drug uptake
readout type: concentration at 4383 h

>>> endpoint_value("Cc1cc(/C=C/C#N)cc(C)c1Nc1ccnc(Nc2ccc(C#N)cc2)n1 [RILPIVIRINE]")
"< 5 ng/g"

====

experiment: Drug level in Beagle dog lymph node axillar at 5 mg/kg, sc after 3 months; assay type: ADME, organism-based, Canis lupus familiaris; parameters: dose 5 mg/kg, route subcutaneous; conditions: axillary lymph node, read-out: Drug uptake
readout type: concentration at 2191.5 h (ng/g)

>>> endpoint_value("Cc1cc(/C=C/C#N)cc(C)c1Nc1ccnc(Nc2ccc(C#N)cc2)n1")
22.1

====

assay: AUC (0 to last) in female dog at 400 mg administered intramuscularly after 85 days; conditions: plasma, im
readout type: AUC(0-t) at 2040 h (µg·h/mL)

>>> endpoint_value("Cc1cc(/C=C/C#N)cc(C)c1Nc1ccnc(Nc2ccc(C#N)cc2)n1 [RILPIVIRINE]")
265

====

test: Drug level in male Beagle dog thymus at 200 mg/kg, sc after 3 months; format: ADME, organism-based, Canis lupus familiaris; design: dose 200 mg/kg, route subcutaneous; settings: read-out: Drug uptake
readout type: concentration at 2191.5 h (ng/g)

>>> endpoint_value("Cc1cc(/C=C/C#N)cc(C)c1Nc1ccnc(Nc2ccc(C#N)cc2)n1 [RILPIVIRINE]")
84.2

====

test: Drug level in male Beagle dog thymus at 400 mg/kg administered intramuscularly after 3 months; format: ADME, organism-based, Canis lupus familiaris; set-up: dose 400 mg/kg, route intramuscular; conditions: im, read-out: Drug uptake
readout type: concentration at 2191.5 h (ng/g)

>>> endpoint_value("Cc1cc(/C=C/C#N)cc(C)c1Nc1ccnc(Nc2ccc(C#N)cc2)n1")
76

====

assay: Cmax in Beagle dog at 5 mg/kg, sc after 184 days; type: ADME, organism-based, Canis lupus familiaris; set-up: dose 5 mg/kg, route subcutaneous; conditions: in vivo
readout type: Cmax

>>> endpoint_value("Cc1cc(/C=C/C#N)cc(C)c1Nc1ccnc(Nc2ccc(C#N)cc2)n1")
"38 ng/mL"

====

experiment: AUC (0 to last) in male dog at 200 mg, sc after 29 days; conditions: plasma
readout type: AUC(0-t) at 696 h (ng·h/mL)

>>> endpoint_value("Cc1cc(/C=C/C#N)cc(C)c1Nc1ccnc(Nc2ccc(C#N)cc2)n1")
56800

====

test: Ratio of drug level in spleen to plasma in Beagle dog at 5 mg/kg, sc after 3 months; format: ADME, organism-based, Canis lupus familiaris; parameters: dose 5 mg/kg, route subcutaneous
readout type: Kp at 2191.5 h

>>> endpoint_value("Cc1cc(/C=C/C#N)cc(C)c1Nc1ccnc(Nc2ccc(C#N)cc2)n1")
3

====

test: Ratio of drug level in thymus to plasma in male Beagle dog at 400 mg/kg, sc after 3 months; type: ADME, organism-based, Canis lupus familiaris; set-up: dose 400 mg/kg, route subcutaneous
readout type: Kp at 2191.5 h

>>> endpoint_value("Cc1cc(/C=C/C#N)cc(C)c1Nc1ccnc(Nc2ccc(C#N)cc2)n1")
3.5

====

assay: AUC (0 to infinity) in Sprague-Dawley rat at 1.25 mg/kg, iv after 2 days; assay type: ADME, organism-based; set-up: time infinity, dose 1.25 mg/kg, route intravenous; conditions: plasma
readout type: AUC(0-inf) (ng·h/mL)

>>> endpoint_value("Cc1cc(/C=C/C#N)cc(C)c1Nc1ccnc(Nc2ccc(C#N)cc2)n1")
1230

====

assay: Drug level in male Beagle dog spleen at 200 mg/kg, sc after 3 months; format: ADME, organism-based, Canis lupus familiaris; set-up: dose 200 mg/kg, route subcutaneous; details: read-out: Drug uptake
readout type: concentration at 2191.5 h

>>> endpoint_value("Cc1cc(/C=C/C#N)cc(C)c1Nc1ccnc(Nc2ccc(C#N)cc2)n1")
"36.2 ng/g"

====

test: Plasma concentration in female Beagle dog at 200 mg/kg administered intramuscularly after 3 months; format: ADME, organism-based, Canis lupus familiaris; parameters: dose 200 mg/kg, route intramuscular; details: im
readout type: concentration at 2191.5 h (ng/mL)

>>> endpoint_value("Cc1cc(/C=C/C#N)cc(C)c1Nc1ccnc(Nc2ccc(C#N)cc2)n1")
10.1

====

assay: Plasma concentration in female Beagle dog at 400 mg/kg administered intramuscularly after 3 months; format: ADME, organism-based, Canis lupus familiaris; design: dose 400 mg/kg, route intramuscular; conditions: im
readout type: concentration at 2191.5 h (ng/mL)

>>> endpoint_value("Cc1cc(/C=C/C#N)cc(C)c1Nc1ccnc(Nc2ccc(C#N)cc2)n1 [RILPIVIRINE]")
20.3

====

test: Ratio of drug level in spleen to plasma in female Beagle dog at 200 mg/kg administered intramuscularly after 1 month; type: ADME, organism-based, Canis lupus familiaris; parameters: dose 200 mg/kg, route intramuscular; conditions: im
readout type: Kp at 730.5 h

>>> endpoint_value("Cc1cc(/C=C/C#N)cc(C)c1Nc1ccnc(Nc2ccc(C#N)cc2)n1")
2.3

====

assay: AUC (0 to last) in Beagle dog at 5 mg/kg, sc after 184 days; type: ADME, organism-based, Canis lupus familiaris; set-up: time 0 - last, dose 5 mg/kg, route subcutaneous; settings: plasma
readout type: AUC(0-t) at 4416 h (ng·h/mL)

>>> endpoint_value("Cc1cc(/C=C/C#N)cc(C)c1Nc1ccnc(Nc2ccc(C#N)cc2)n1 [RILPIVIRINE]")
24400

====

test: Cmax in male dog at 200 mg, sc after 29 days; conditions: in vivo
readout type: Cmax

>>> endpoint_value("Cc1cc(/C=C/C#N)cc(C)c1Nc1ccnc(Nc2ccc(C#N)cc2)n1 [RILPIVIRINE]")
"119 ng/mL"

====

assay: Drug level in male Beagle dog spleen at 200 mg/kg administered intramuscularly after 3 months; format: ADME, organism-based, Canis lupus familiaris; parameters: dose 200 mg/kg, route intramuscular; details: im, read-out: Drug uptake
readout type: concentration at 2191.5 h

>>> endpoint_value("Cc1cc(/C=C/C#N)cc(C)c1Nc1ccnc(Nc2ccc(C#N)cc2)n1")
"23.8 ng/g"

====

assay: Tmax in male dog at 400 mg administered intramuscularly after 29 days; settings: in vivo, im
readout type: Tmax (h)

>>> endpoint_value("Cc1cc(/C=C/C#N)cc(C)c1Nc1ccnc(Nc2ccc(C#N)cc2)n1")
17

====

assay: Plasma concentration in male Beagle dog at 400 mg/kg, sc after 3 months; format: ADME, organism-based, Canis lupus familiaris; design: dose 400 mg/kg, route subcutaneous
readout type: concentration at 2191.5 h (ng/mL)

>>> endpoint_value("Cc1cc(/C=C/C#N)cc(C)c1Nc1ccnc(Nc2ccc(C#N)cc2)n1 [RILPIVIRINE]")
48.4

====

assay: Ratio of drug level in lymph node iliac to plasma in Beagle dog at 5 mg/kg, sc after 3 months; assay type: ADME, organism-based, Canis lupus familiaris; design: dose 5 mg/kg, route subcutaneous
readout type: Kp at 2191.5 h

>>> endpoint_value("Cc1cc(/C=C/C#N)cc(C)c1Nc1ccnc(Nc2ccc(C#N)cc2)n1 [RILPIVIRINE]")
5.2

====

assay: Ratio of drug level in thymus to plasma in female Beagle dog at 400 mg/kg administered intramuscularly after 3 months; format: ADME, organism-based, Canis lupus familiaris; parameters: dose 400 mg/kg, route intramuscular; settings: im
readout type: Kp at 2191.5 h

>>> endpoint_value("Cc1cc(/C=C/C#N)cc(C)c1Nc1ccnc(Nc2ccc(C#N)cc2)n1")
4.9

====

test: Ratio of drug level in thymus to plasma in female Beagle dog at 200 mg/kg administered intramuscularly after 3 months; assay type: ADME, organism-based, Canis lupus familiaris; set-up: dose 200 mg/kg, route intramuscular; conditions: im
readout type: Kp at 2191.5 h

>>> endpoint_value("Cc1cc(/C=C/C#N)cc(C)c1Nc1ccnc(Nc2ccc(C#N)cc2)n1 [RILPIVIRINE]")
2.8
